Entry source: patent US9738655B2

Task for the reader: assign each of the following molecules its reported Ki.
biological target: purified human plasma kallikrein (Homo sapiens (Human), UniProt P03952); experiment: Plasma kallikrein enzyme inhibition assay (chromogenic substrate S-2302); type: biochemical; conditions: measured at 25° C. (no asterisk)
Sequence (P03952 391-638): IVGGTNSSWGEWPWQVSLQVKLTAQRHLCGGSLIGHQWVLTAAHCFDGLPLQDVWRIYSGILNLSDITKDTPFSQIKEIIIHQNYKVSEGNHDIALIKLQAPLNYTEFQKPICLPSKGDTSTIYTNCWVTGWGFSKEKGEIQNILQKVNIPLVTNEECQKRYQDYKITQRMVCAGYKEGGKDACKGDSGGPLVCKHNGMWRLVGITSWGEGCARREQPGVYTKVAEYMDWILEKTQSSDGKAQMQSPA
Sequence (P03952 20-390 partner): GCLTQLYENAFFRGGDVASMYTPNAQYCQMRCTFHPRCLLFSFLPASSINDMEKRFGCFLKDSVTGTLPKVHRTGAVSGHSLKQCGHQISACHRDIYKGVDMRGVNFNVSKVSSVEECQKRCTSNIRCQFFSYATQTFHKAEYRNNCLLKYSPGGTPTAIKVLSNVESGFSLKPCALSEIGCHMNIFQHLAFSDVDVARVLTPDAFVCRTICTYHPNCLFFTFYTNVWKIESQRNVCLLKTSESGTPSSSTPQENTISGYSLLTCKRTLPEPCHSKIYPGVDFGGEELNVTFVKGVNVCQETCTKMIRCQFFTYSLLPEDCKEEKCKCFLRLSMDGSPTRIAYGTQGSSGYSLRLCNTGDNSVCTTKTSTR
Counter-ions that a name gives are not always drawn.
Numbers only, in nM.

Could I get Ki for every one of these entries?
1. CN1CCN(c2cccc3c2CCN(C(=O)c2cn(-c4cccc(Cl)c4F)nn2)[C@H]3C(=O)Nc2ccc(C(=O)O)cc2)C(=O)C1 [Example 79, TFA salt]
2. CO[C@@H]1CCN(c2cccc3c2CCN(C(=O)[C@H]2CC(c4cccc(Cl)c4F)=NO2)[C@@H]3C(=O)Nc2ccc(C(=O)O)cc2)C1 [Example 300, TFA salt]
3. N#Cc1ccc(-c2cccc3c2CCN(C(=O)c2cn(-c4cccc(Cl)c4F)nn2)[C@H]3C(=O)Nc2ccc(C(=O)O)cc2)cn1 [Example 15, TFA salt]
4. N#Cc1ccc(-c2cccc3c2CCN(C(=O)c2cn(-c4cccc(Cl)c4F)nn2)[C@@H]3C(=O)Nc2ccc(C(=O)O)cc2)cn1 [Example 16, TFA salt]
5. O=C1CCC2(CCN(c3cccc4c3CCN(C(=O)c3cn(-c5cccc(Cl)c5F)cn3)C4C(=O)Nc3ccc(C(=O)O)cc3)CC2)O1 (stereo not drawn) [Example 77, TFA salt]
6. O=C(O)c1ccc(NC(=O)C2c3cccc(OC4CCNCC4)c3CCN2C(=O)c2cn(-c3cccc(Cl)c3F)nn2)cc1 (stereo not drawn) [Example 112, TFA salt]

Output:
1. 719
2. 4.15
3. 219
4. 4.55
5. 7.96
6. 3.16

* * *

Task for the reader: assign each of the following compounds its reported Ki.
biological target: purified human Factor XIa (Homo sapiens (Human), UniProt P03951); experiment: Factor XIa enzyme inhibition assay (chromogenic substrate S-2366); settings: read-out: Factor XIa Ki; measured at 25° C.
Sequence (P03951 388-625): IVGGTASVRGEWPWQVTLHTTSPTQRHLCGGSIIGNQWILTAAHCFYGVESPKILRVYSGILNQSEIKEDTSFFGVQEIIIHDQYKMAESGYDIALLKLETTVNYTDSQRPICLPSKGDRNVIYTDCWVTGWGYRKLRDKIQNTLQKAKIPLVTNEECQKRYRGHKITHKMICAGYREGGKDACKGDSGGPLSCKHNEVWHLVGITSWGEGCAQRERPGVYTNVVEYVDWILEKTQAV
Sequence (P03951 19-387 partner): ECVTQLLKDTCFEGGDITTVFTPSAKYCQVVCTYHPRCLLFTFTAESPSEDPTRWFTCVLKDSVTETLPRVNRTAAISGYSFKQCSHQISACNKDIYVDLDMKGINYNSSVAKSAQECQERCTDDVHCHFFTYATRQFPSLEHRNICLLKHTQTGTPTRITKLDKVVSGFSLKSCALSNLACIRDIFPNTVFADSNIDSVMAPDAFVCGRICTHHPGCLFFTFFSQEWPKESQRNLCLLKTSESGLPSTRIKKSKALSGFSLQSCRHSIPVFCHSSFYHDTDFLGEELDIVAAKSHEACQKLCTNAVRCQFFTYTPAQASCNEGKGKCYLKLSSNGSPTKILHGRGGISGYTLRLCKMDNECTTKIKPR
Where a name gives a salt, the structure may show the parent alone.

Past entries and their recorded results:
INSERT INTO assay_data (compound, value_kind, assay_result) VALUES
  ('CC(C)c1nnc2n1CCN(c1cccc3c1CCN(C(=O)c1cn(-c4cccc(Cl)c4F)nn1)[C@H]3C(=O)Nc1ccc(C(=O)O)cc1)C2 [Example 65, TFA salt]', 'Ki', '18.9 nM'),
  ('COC(=O)[C@H]1CC[C@@H](NC(=O)C2c3cccc(-c4cncnc4)c3CCN2C(=O)c2cn(-c3cccc(Cl)c3F)nn2)CC1 (some centres unmarked)', 'Ki', '124 nM'),
  ('CN(C)C1CCN(c2cccc3c2CCN(C(=O)c2cnn(-c4cccc(Cl)c4F)c2)[C@@H]3C(=O)Nc2ccc(C(=O)O)cc2)CC1 (single isomer, unassigned) [Example 52, bis-TFA salt]', 'Ki', '< 5 nM'),
  ('CN(C)C(=O)C1CCN(c2cccc3c2CCN(C(=O)c2cnn(-c4cccc(Cl)c4F)c2)[C@H]3C(=O)Nc2ccc(C(=O)O)cc2)CC1 (single isomer, unassigned) [Example 60, TFA salt]', 'Ki', '47.8 nM');

Moving on to another compound below.
Task: Give the reported Ki for this compound. O=C(NC12CCC(C(=O)O)(CC1)CC2)[C@H]1c2cccc(-c3cncnc3)c2CCN1C(=O)c1cn(-c2cccc(Cl)c2F)nn1 (single isomer, unassigned; enantiomer b)
Output: 7.87 nM
